The reader will find reported viability at 0.04 µM values listed item by item below.
- methodDescription: cytotoxicity in Drosophila l(2)mbn cells
- Type: cell-based
- measurementConditions: Drosophila, l(2)mbn cells (larval blood cell-derived), 0.04 µM, replicate 2, relative to DMSO 1%, read-out: % viability, viability 2
readoutLabel: viability at 0.04 µM (%)

1) C=C1CC[C@@H]2[C@](C)(CC[C@H]3O[C@H](C=C(C)C)C[C@@]23C)[C@@H]1Cc1c(O)c(C)c(C)oc1=O ... 127
2) C=C1CCC2C(C)(CCC=C(C)C)C(=O)CCC2(C)C1Cc1c(O)c(C)c(C)oc1=O (stereo not shown) ... 82.2
3) C=C1CC[C@@H]2[C@](C)(CC[C@H]3O[C@H](C=C(C)C)C[C@@]23C)[C@@H]1Cc1c(OC)oc(CO)c(C)c1=O ... 102
4) C=C1CC[C@H]2[C@]3(C)C[C@@H](C=C(C)C)O[C@H]3CC[C@]2(C)[C@@H]1Cc1c(O)c(C)c(C)oc1=O ... 137
5) C=C1CCC2C(C)(CC(=O)C=C(C)C)C(O)CCC2(C)C1Cc1c(OC)oc(CO)c(C)c1=O (stereo not shown) ... 105
6) C=C1CC[C@H]2[C@]3(C)C[C@H](C=C(C)C)O[C@H]3CC[C@]2(C)[C@@H]1Cc1c(OC)oc(CO)c(C)c1=O ... 96.2
7) C=C1CCC2C(C)(CC(=O)C=C(C)C)C(O)CCC2(C)C1Cc1c(O)c(C)c(C)oc1=O (stereo not shown) ... 130
8) C=C1CCC2C(C)(CCC=C(C)C)C(O)CCC2(C)C1Cc1c(OC)oc(CO)c(C)c1=O (stereo not shown) ... 135
9) C=C1CCC2C(C)(CCC=C(C)C)C(O)CCC2(C)C1Cc1c(OC)oc(CO)c(C(=O)OC)c1=O (stereo not shown) ... 152
10) C=C1CC[C@H]2[C@]3(C)C[C@H](C=C(C)C)O[C@H]3CC[C@]2(C)[C@@H]1Cc1c(O)c(C)c(C)oc1=O ... 138
11) C=C1CC[C@H]2[C@]3(C)C[C@@H](C=C(C)C)O[C@H]3CC[C@]2(C)[C@@H]1Cc1c(OC)oc(CO)c(C)c1=O ... 83.5
12) C=C1CCC2C(C)(CCC=C(C)C)C(O)CCC2(C)C1Cc1c(OC)oc(C)c(C(=O)OC)c1=O (stereo not shown) ... 114
13) C=C1CCC2C(C)(CCC=C(C)C)C(O)CCC2(C)C1Cc1c(O)c(C)c(C)oc1=O (stereo not shown) ... 91.3
14) C=C1CC[C@H]2[C@]3(C)C[C@H](C=C(C)C)O[C@H]3CC[C@]2(C)[C@@H]1Cc1c(OC)oc(C)c(C)c1=O ... 110
15) C=C1CCC2C3(C)CC(C=C(C)C)OC3CCC2(C)C1Cc1c(OC)oc(C)c(C)c1=O (stereo not shown) ... 135
16) C=C1CCC2C(C)(CC(=O)C=C(C)C)C(O)CCC2(C)C1Cc1c(OC)oc(C)c(C)c1=O (stereo not shown) ... 126

---

- systemUnderTest: Aβ42 (Homo sapiens)
- Sequence (P05067 672-713): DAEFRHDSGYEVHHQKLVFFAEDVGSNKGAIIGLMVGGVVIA
- methodDescription: Th-T (thioflavin-T) assay of Aβ42 aggregation
- Assay type: biochemical
- measurementConditions: column suffix _20; reading M9
readoutLabel: Th-T assay signal, mean of three wells (Fig. 7a)

1) C=C1CC[C@@H]2[C@](C)(CC[C@H]3O[C@H](C=C(C)C)C[C@@]23C)[C@@H]1Cc1c(OC)oc(CO)c(C)c1=O ... 0.5302
2) C=C1CC[C@@H]2[C@](C)(CC[C@H]3O[C@H](C=C(C)C)C[C@@]23C)[C@@H]1Cc1c(OC)oc(CO)c(C(=O)OC)c1=O ... 0.1943
3) C=C1CCC2C(C)(CCC=C(C)C)C(O)CCC2(C)C1Cc1c(OC)oc(CO)c(C(=O)OC)c1=O (centres unmarked) ... 0.1897
4) C=C1CCC2C(C)(CCC=C(C)C)C(O)CCC2(C)C1Cc1c(OC)oc(C)c(C(=O)OC)c1=O (centres unmarked) ... 0.3254
5) C=C1CCC2C(C)(CCC=C(C)C)C(O)CCC2(C)C1Cc1c(OC)oc(CO)c(C)c1=O (centres unmarked) ... 2.522
